B1: INTS3 (parent)
chain: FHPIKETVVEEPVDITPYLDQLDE

Variants of: B1
Assay: protein stability index of a GFP-peptide fusion (GPS, HEK-293T) (PSI 1-6); higher = more stable;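 note: lentivirally expressed fusions sorted by FACS into six bins by GFP to DsRed ratio, PSI derived from sequencing read proportions per bin multiplied by bin number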
Conditions: c terminus: a fixed tail appended
Observed Property: protein stability index

Q. Item `V13K` has what recorded protein stability index?
A. 3.05

Q. Item `Y18T` has what recorded protein stability index?
A. 3.71

Q. Item `I15G` has what recorded protein stability index?
A. 3.23

Q. Item `Q21G` has what recorded protein stability index?
A. 3.56

Q. Item `D20S` has what recorded protein stability index?
A. 3.3

Q. Item `K5S` has what recorded protein stability index?
A. 4.99

Q. Item `Q21A` has what recorded protein stability index?
A. 3.73

Q. Item `V9Q` has what recorded protein stability index?
A. 3.77

Q. Item `E11G` has what recorded protein stability index?
A. 3.19

Q. Item `Y18K` has what recorded protein stability index?
A. 3.77

Q. Item `E10G` has what recorded protein stability index?
A. 2.8
